system: ECHORC (Watergrass (Calif.)); experiment: Preemergence weed control under flooded paddy conditions; assay type: in vivo, Echinochloa oryzoides; conditions: 0.1250 kg/ha, rated 3-4 weeks after treatment
Readout Type: Herbicidal rating ECHORC

> print(dat)
                                   molecule  reported.measurement
1  CCC1SC(=Nc2cc(N3C(=O)C4=C(CCCC4)C3=O)c(F)cc2Cl)N(C)C1=O (centres unmarked)                   2.0
2  CCOC(=O)CN1C(=O)C(CC(=O)OC(C)C)SC1=Nc1cc(-n2c(=O)cc(C(F)(F)F)n(C)c2=O)c(F)cc1Cl (centres unmarked)                   7.0
3  COC(=O)CCCN1C(=O)CSC1=Nc1cc(-n2c(=O)cc(C(F)(F)F)n(C)c2=O)c(F)cc1Cl                   7.0
4  CCOC(=O)CN1C(=O)CN(C)C1=Nc1cc(-n2c(=O)cc(C(F)(F)F)n(C)c2=O)c(F)cc1Cl                   7.0
5  CN1C(=O)CS/C1=N/c1cc(-n2c(=O)cc(C(F)(F)F)n(C)c2=O)c(F)cc1Cl                   9.0

----------
Parameter herbicidal effect rating, CYPIR: see the listing below.
system: CYPIR (Rice Flatsedge); assay: Preemergence weed control under flooded paddy conditions; format: in vivo, Cyperus iria; settings: 0.0625 kg/ha, rated 3-4 weeks after treatment
Readout Type: herbicidal effect rating, CYPIR

> print(dat)
                                    molecule  reported.measurement
 1  CC(C)N1C(=O)CSC1=Nc1cc(-n2c(=O)cc(C(F)(F)F)n(C)c2=O)c(F)cc1Cl                   5.0
 2  Cn1c(C(F)(F)F)cc(=O)n(-c2cc(N=C3SCC(=O)N3Cc3ccc(F)cc3)c(Cl)cc2F)c1=O                   2.0
 3  CCN1C(=O)CSC1=Nc1cc(-n2c(=O)cc(C(F)(F)F)n(C)c2=O)c(F)cc1Cl                   0.0
 4  CN(C)c1ccc(CN2C(=O)CSC2=Nc2cc(-n3c(=O)cc(C(F)(F)F)n(C)c3=O)c(F)cc2Cl)cc1                   2.0
 5  Cn1c(C(F)(F)F)cc(=O)n(-c2cc(N=C3SCC(=O)N3Cc3cccnc3)c(Cl)cc2F)c1=O                   0.0
 6  Cn1c(C(F)(F)F)cc(=O)n(-c2cc(N=C3SCC(=O)N3Cc3cc(Cl)cc(Cl)c3)c(Cl)cc2F)c1=O                   9.0
 7  COCCCN1C(=O)CSC1=Nc1cc(-n2c(=O)cc(C(F)(F)F)n(C)c2=O)c(F)cc1Cl                   7.0
 8  CCOC(=O)CN1C(=O)C(C(=O)OC(C)(C)C)SC1=Nc1cc(-n2c(=O)cc(C(F)(F)F)n(C)c2=O)c(F)cc1Cl (stereo not shown)                   9.0
 9  Cn1c(C(F)(F)F)cc(=O)n(-c2cc(N=C3SCC(=O)N3Cc3ccc(Cl)c(Cl)c3)c(Cl)cc2F)c1=O                   3.0
10  Cn1c(C(F)(F)F)cc(=O)n(-c2cc(N=C3SCC(=O)N3CC(=O)OC3CCCC3)c(Cl)cc2F)c1=O                   2.5
